test: blockers of RIG-like receptor reporter activation – cell-based, Sendai virus stimulus, luciferase, 10K MLSCN set, TLR/RLR signaling modifier project, primary screen (AID 602276); conditions: HEK293 RL24 IRF3 luciferase reporter, at 10 µM, hits give high values;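 also: firefly luciferase from ISG56 promoter only with Renilla not read in this screen; 0% = Sendai virus plus DMSO and 100% = medium plus DMSO without virus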
measured-quantity: inhibition (%)
Report only the number, with the unit % understood.

Return reported inhibition; argument: "Cc1ccc(-c2nn(C)c(=O)c3ccccc23)cc1S(=O)(=O)N1CCOCC1" 8.97

Item: CCOC(=O)C(C)On1c(SC(C)C(=O)OCC)nc2ccccc2c1=O (stereo unspecified) 20

// query: "O=C(CSc1ncnc2sc3c(c12)CCCCC3)NCc1ccco1" 17.7

And the next one, "COc1cccc(OC)c1C(=O)Nc1ccccc1N1CCCC1" ? 15.4

Also, "CN(C)S(=O)(=O)c1ccc(C(=O)Nc2ccccc2C(=O)O)cc1" please. 2.15

And for CCOc1ccccc1N1C(=O)CC(Sc2ncccc2C(=O)O)C1=O (stereo unspecified) ? 12.2

Same question, "COc1cc(-c2c(C#N)c(N)nc3c2CCCC3)cc(OC)c1OC" this time 20

Now consider "CCOC(=O)c1cc2c(=O)n3cccc(C)c3nc2n(CCc2ccccc2)c1=N" . 12

Okay, and C=CCOC(=O)C(C#N)c1nc2ccccc2nc1N1CCN(Cc2ccccc2)CC1 (stereo unspecified) ? 10.9

What do you have for "Cc1ccc(S(=O)(=O)N[C@@H](C)C(=O)N2CCC(C(=O)N3CCC[C@H]3C(=O)O)CC2)cc1" ? 2.84

# repeat for "COc1ccc(-c2cnc(SCC(=O)Nc3ccc4c(c3)OCO4)n2Cc2ccco2)cc1" 2.4

Next record, please: "CCOc1ncccc1C(=O)Nc1ccc2c(C)cc(=O)oc2c1" 10.1

Next entry: "Oc1cnc2ccccc2c1CN1CCOCC1" 18

Queued: "Cc1nn(-c2ccc(F)cc2)c2nc(N)c(C#N)c(-c3cccs3)c12" 12.4

Now consider "Cc1ccc(-c2csc3nnc(SCC(=O)NCc4ccco4)n23)cc1" and answer again. 17.2

Same lookup for "Cc1cc(Cl)c(S(=O)(=O)NC2CCCCC2)cc1OCC(=O)Nc1nncs1" , please. 13.4

Origin of the recorded values: PubChem BioAssay
